- ASSAY_PROCEDURE: Biodistribution studies incl. blocking experiments
- Assay type: in vivo
- TEST_PARAMETERS: healthy BALB/c mice, 10 min p.i.
Field: Biodistribution Muscle. Provide a value for each of the compounds that follow.
Your answer should be a number followed by the unit of measure.

Prompt: What Biodistribution Muscle value was documented for this compound, O=C(CCP(=O)([O-])CN1CCN(CP(=O)([O-])CCC(=O)NCc2cn(CCOCCOCCO[C@@H]3O[C@H](CO)[C@H](O)[C@H](O)[C@H]3O)nn2)CCN(CP(=O)([O-])CCC(=O)NCc2cn(CCOCCOCCO[C@@H]3O[C@H](CO)[C@H](O)[C@H](O)[C@H]3O)nn2)CC1)NCc1cn(CCOCCOCCO[C@@H]2O[C@H](CO)[C@H](O)[C@H](O)[C@H]2O)nn1.[68Ga+3] [[^68Ga]Ga-TRAP-Galactan] ?
Completion: 0.91 ± 0.08 % ID/g

Prompt: Param item = O=C(O)CN1CCN(CC(=O)O)CCN([C@H](CCC(=O)NCCCC(=O)NC(COCc2cn(CCOCCOCCO[C@@H]3O[C@H](CO)[C@H](O)[C@H](O)[C@H]3O)nn2)(COCc2cn(CCOCCOCCO[C@@H]3O[C@H](CO)[C@H](O)[C@H](O)[C@H]3O)nn2)COCc2cn(CCOCCOCCO[C@@H]3O[C@H](CO)[C@H](O)[C@H](O)[C@H]3O)nn2)C(=O)O)CC1 [[^68Ga]Ga-NODAGA-TriGalactan, metal not drawn] ; retrieve measured Biodistribution Muscle.
Completion: 0.77 ± 0.02 % ID/g

Prompt: Name the recorded Biodistribution Muscle for CC(=O)N[C@H]1[C@H](OCCOCCOCCn2cc(CNC(=O)CCP(=O)([O-])CN3CCN(CP(=O)([O-])CCC(=O)NCc4cn(CCOCCOCCO[C@@H]5O[C@H](CO)[C@H](O)[C@H](O)[C@H]5NC(C)=O)nn4)CCN(CP(=O)([O-])CCC(=O)NCc4cn(CCOCCOCCO[C@@H]5O[C@H](CO)[C@H](O)[C@H](O)[C@H]5NC(C)=O)nn4)CC3)nn2)O[C@H](CO)[C@H](O)[C@@H]1O.[68Ga+3] [[^68Ga]Ga-TRAP-GalNAc] .
Completion: 0.55 ± 0.03 % ID/g

Prompt: // query Biodistribution Muscle value for entry O=C(CCP(=O)([O-])CN1CCN(CP(=O)([O-])CCC(=O)NCc2cn([C@@H]3O[C@H](CO)[C@H](O)[C@H](O)[C@H]3O)nn2)CCN(CP(=O)([O-])CCC(=O)NCc2cn([C@@H]3O[C@H](CO)[C@H](O)[C@H](O)[C@H]3O)nn2)CC1)NCc1cn([C@@H]2O[C@H](CO)[C@H](O)[C@H](O)[C@H]2O)nn1.[68Ga+3] [[^68Ga]Ga-Galacto-TRAP]
Completion: 3.25 ± 0.27 % ID/g

Prompt: May I ask what Biodistribution Muscle has been recorded for O=C(CCP(=O)([O-])CN1CCN(CP(=O)([O-])CCC(=O)NCc2cn(CCOCCOCCO[C@@H]3O[C@H](CO)[C@@H](O)[C@H](O)[C@H]3O)nn2)CCN(CP(=O)([O-])CCC(=O)NCc2cn(CCOCCOCCO[C@@H]3O[C@H](CO)[C@@H](O)[C@H](O)[C@H]3O)nn2)CC1)NCc1cn(CCOCCOCCO[C@@H]2O[C@H](CO)[C@@H](O)[C@H](O)[C@H]2O)nn1.[68Ga+3] [[^68Ga]Ga-TRAP-Gluco, reference compound] ?
Completion: 0.99 ± 0.10 % ID/g

Data provenance: patent US20260151516A1
